biological target: hGcgR (Homo sapiens, UniProt P47871); assay: Functional cAMP activation in the presence of 0.1% casein (no HSA); format: cell-based; details: read-out: Relative cAMP EC50, hGcgR;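 further: intracellular cAMP rise after 30 min at 37 °C, read by HTRF against a cAMP standard curve, scaled from buffer only (0%) to maximal control ligand response (100%)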
Sequence (P47871 26-477): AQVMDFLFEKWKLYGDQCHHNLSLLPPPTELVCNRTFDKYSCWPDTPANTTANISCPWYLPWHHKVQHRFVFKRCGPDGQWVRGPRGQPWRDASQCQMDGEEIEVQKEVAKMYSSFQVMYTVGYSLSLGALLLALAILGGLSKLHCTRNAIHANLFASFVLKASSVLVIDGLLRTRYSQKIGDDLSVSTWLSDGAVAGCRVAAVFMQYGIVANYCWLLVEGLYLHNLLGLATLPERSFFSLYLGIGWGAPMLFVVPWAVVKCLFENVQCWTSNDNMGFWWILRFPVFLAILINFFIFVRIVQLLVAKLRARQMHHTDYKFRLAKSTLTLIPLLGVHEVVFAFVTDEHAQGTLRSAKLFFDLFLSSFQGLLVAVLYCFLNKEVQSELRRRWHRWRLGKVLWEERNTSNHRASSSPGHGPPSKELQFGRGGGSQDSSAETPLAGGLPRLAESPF
Starred links: 1 amine or outer side, 2 acyl side, 3 side chain; linkers in the order of their positions; H or OH if unused. Non-standard residues stand in square brackets, D forms with d. Groups on a side chain read outwards from the residue. No end group written: not given here. *: point of attachment. C18 diacid = O=C(O)CCCCCCCCCCCCCCCCC(=O)*; αMePhe(2-F) = C[C@](N)(Cc1ccccc1F)C(=O)O; γGlu = O=C(O)[C@H](CCC(=O)[*:2])N[*:1]; αMe4Pal = C[C@](N)(Cc1ccncc1)C(=O)O; αMeY = C[C@](N)(Cc1ccc(O)cc1)C(=O)O; 4Pal = N[C@@H](Cc1ccncc1)C(=O)O; αMeL = CC(C)C[C@](C)(N)C(=O)O; αMeS = C[C@](N)(CO)C(=O)O; Orn = NCCC[C@H](N)C(=O)O; AEEA = NCCOCCOCC(=O)O; Aib = CC(C)(N)C(=O)O
Observation Type: EC50 (nM)
Dear colleague, please return just the value in nM, with no unit written.

Take a look at these entries with their results.
Reported EC50 ( H-Y[Aib]QGT[αMePhe(2-F)]TSD[4Pal]SI[αMeL]LD[Orn]K([AEEA-γGlu-C18 diacid])AQ[αMe4Pal]EFI[dE][αMeY]LQEGGPSSGAPPPSGS-NH2 [Example 643] ) = 16

Reported EC50 for Y[Aib]QGT[αMePhe(2-F)]TSD[4Pal]SI[αMeL]LD[Orn]K([AEEA-γGlu-C18 diacid])AQ[αMe4Pal]EFI[dE][αMeY]LIEGGPSSGAPPPSGE-NH2 [Example 614] was 6.36

The reported value for H-Y[Aib]QGT[αMePhe(2-F)]TSD[4Pal]SI[αMeL]LD[Orn]K([AEEA-γGlu-C18 diacid])AQ[αMe4Pal]EFI[dE][αMeY]LLEGGPSSGAPPPSGS-NH2 [Example 641] in terms of EC50 is 3.72

Quick note, EC50 for H-Y[Aib]QGT[αMePhe(2-F)]TSD[4Pal][αMeS]I[αMeL]LD[Orn]K([γGlu-γGlu-C18 diacid])AQ[Aib][Orn]FI[dE][αMeY]LSEGGPSSGEPPPSGTEEE-NH2 [Example 562] landed at 6

get_value(item= H-Y[Aib]QGT[αMePhe(2-F)]TSD[4Pal][αMeS]I[αMeL]LD[Orn]K([γGlu-γGlu-C18 diacid])AQ[Aib][Orn]FI[dE]YLSEGGPSSGEPPPSGTE-NH2 [Example 530] , readout=EC50) returns 17.1

EC50 for H-Y[Aib]QGT[αMePhe(2-F)]TSD[4Pal]SILLDKK([AEEA-γGlu-C18 diacid])AQ[Aib]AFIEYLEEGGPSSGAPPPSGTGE-NH2 [Example 662] is 4.81

The reported value for H-Y[Aib]QGT[αMePhe(2-F)]TSD[4Pal][αMeS]ILLD[Orn]K([γGlu-γGlu-C18 diacid])AQ[Aib][Orn]FI[dE][αMeY]LQEGGPSSGEPPPSGAE-NH2 [Example 547] in terms of EC50 is 3.8

According to the records, this substance Y[Aib]QGT[αMePhe(2-F)]TSD[4Pal][αMeS]I[αMeL]LE[Orn]K([AEEA-γGlu-C18 diacid])AQ[αMe4Pal]EFI[dE][αMeY]LVEGGPSSGAPPPSGS-NH2 [Example 768] displays EC50 of 10.3

New cases:
What the record says about H-Y[Aib]QGT[αMePhe(2-F)]TSD[4Pal][αMeS]I[αMeL]LD[Orn]K([γGlu-γGlu-C18 diacid])AQ[Aib]QFI[dE][αMeY]LQEGGPSSGEPPPEGTGE-NH2 [Example 529] : EC50 is 6.59

So, H-Y[Aib]QGT[αMePhe(2-F)]TSD[4Pal]SILLDKK([AEEA-γGlu-C18 diacid])AQ[Aib]AFIE[αMeY]LEEGGPSSGAPPPSGTGE-NH2 [Example 669] ? Its EC50 was 1.76
